B1: HDV Ribozyme (parent)
chain: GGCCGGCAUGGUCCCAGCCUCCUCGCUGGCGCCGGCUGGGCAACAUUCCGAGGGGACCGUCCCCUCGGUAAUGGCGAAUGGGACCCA

Variants of: B1
assay-comment: self-cleavage, relative activity (ratio to wild type); higher = more cleavage; co-transcriptional
Label Not satisfied if self-cleavage falls below 0.8; label Satisfied in every other case.

1. A8C C84G :: Not satisfied
2. C19G G68A :: Not satisfied
3. A45U U72A :: Satisfied
4. G53U C61G :: Satisfied
5. C26G C86A :: Satisfied
6. C22A C48G :: Not satisfied
7. G5U C62G :: Not satisfied
8. G11C G34A :: Not satisfied
9. G50U G67U :: Satisfied
10. C58U U79G :: Not satisfied
11. C14A G82C :: Not satisfied
12. C3A G59C :: Not satisfied
13. C15U G59U :: Satisfied
14. C49G A71U :: Satisfied
